assayed-system: furin, P09958;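 also: purified furin at 1:10 enzyme:substrate in 50 mM HEPES pH 7.5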
Sequence (P09958 whole entry): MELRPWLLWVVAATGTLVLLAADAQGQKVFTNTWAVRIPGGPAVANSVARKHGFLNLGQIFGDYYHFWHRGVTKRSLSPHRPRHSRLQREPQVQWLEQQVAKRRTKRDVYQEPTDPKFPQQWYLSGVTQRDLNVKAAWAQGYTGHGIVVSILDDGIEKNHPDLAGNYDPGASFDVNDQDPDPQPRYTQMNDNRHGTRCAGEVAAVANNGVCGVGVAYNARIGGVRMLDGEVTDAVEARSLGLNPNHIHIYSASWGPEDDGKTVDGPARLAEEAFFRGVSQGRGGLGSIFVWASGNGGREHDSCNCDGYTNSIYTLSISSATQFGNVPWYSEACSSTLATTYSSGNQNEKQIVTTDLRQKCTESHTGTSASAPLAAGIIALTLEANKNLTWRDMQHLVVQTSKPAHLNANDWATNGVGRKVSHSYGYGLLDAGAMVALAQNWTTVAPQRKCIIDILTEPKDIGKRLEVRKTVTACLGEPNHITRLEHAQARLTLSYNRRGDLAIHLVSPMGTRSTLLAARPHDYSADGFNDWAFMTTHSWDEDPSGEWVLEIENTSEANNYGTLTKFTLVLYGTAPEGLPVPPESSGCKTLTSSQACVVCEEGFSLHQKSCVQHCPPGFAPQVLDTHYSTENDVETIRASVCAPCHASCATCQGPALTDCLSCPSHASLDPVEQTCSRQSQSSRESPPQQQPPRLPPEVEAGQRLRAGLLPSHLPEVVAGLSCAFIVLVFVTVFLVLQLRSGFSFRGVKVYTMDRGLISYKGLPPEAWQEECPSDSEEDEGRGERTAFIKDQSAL
procedure-details: furin cleavage Z-score vs untreated control; higher = more cleavage, active = 3.5 or more, inactive = 1 or less, 8 variable residues between constant flanks
conditions-used: 15 min
The list shows a part of the results. The hit rate among all sequences tested is not known here.
endpoint-label: furin cleavage Z-score
Answers are plain numbers.

For orientation, consider the following solved cases.
CARARRDHFSAGNASASA [FS-2642]: 1.33
CATRSRSERDAGNASASA [FS-884]: 3.17

Proceeding to the next sequence to report its furin cleavage Z-score.
## Input Give the measured furin cleavage Z-score of CARPFRSFVPAGNASASA [FS-2499] .
## Output 1.12
